- EXPERIMENTAL SYSTEM: RXRα (Homo sapiens)
- Sequence (P19793 whole entry): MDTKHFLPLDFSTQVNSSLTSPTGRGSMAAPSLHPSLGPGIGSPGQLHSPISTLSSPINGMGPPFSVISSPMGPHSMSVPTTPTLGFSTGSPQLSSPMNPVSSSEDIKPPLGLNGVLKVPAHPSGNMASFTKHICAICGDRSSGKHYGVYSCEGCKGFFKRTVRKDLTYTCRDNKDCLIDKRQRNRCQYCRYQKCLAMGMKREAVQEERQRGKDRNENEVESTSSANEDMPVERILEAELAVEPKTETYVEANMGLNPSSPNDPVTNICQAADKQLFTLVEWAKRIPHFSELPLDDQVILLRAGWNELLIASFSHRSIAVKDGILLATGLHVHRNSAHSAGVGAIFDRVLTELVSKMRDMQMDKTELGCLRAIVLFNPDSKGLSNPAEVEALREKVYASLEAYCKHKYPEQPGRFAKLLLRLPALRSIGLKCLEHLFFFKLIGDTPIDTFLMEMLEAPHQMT
- ASSAY EXPLANATION: holoreceptor transactivation assay, RXRα
- CONDITION DESCRIPTION: holoreceptor assay, read-out: RXR Trans EC50 α
pEC50: −log10 of the molar value.

>  <SMILES DATA>
CC(C)N1CCC(C)(C)c2cc(N(C)c3ccc(C(=O)O)cc3)ccc21

>  <CENSORING QUALIFIER>
=

>  <pEC50>
6.00

$$$$
>  <SMILES DATA>
CCN(c1ccc(C(=O)O)cc1)c1cc2c(cc1C)N(C(C)C)CCC2(C)C

>  <CENSORING QUALIFIER>
=

>  <pEC50>
7.44

$$$$
>  <SMILES DATA>
Cc1cc2c(cc1N(C)c1ccc(C(=O)O)cc1)N(C(C)C)CCC2(C)C

>  <CENSORING QUALIFIER>
=

>  <pEC50>
7.49

$$$$
>  <SMILES DATA>
Cc1cc2c(cc1Nc1ccc(C(=O)O)cc1)N(C(C)C)CCC2(C)C

>  <CENSORING QUALIFIER>
=

>  <pEC50>
8.40

$$$$
>  <SMILES DATA>
Cc1cc2c(cc1N(C)c1ccc(C(=O)O)cc1)C(C)(C)CCN2C(C)C

>  <CENSORING QUALIFIER>
=

>  <pEC50>
6.00

$$$$
>  <SMILES DATA>
CC(C)CN(c1ccc(C(=O)O)cc1)c1ccc2c(c1)N(C(C)C)CCC2(C)C

>  <CENSORING QUALIFIER>
=

>  <pEC50>
9.00

$$$$
>  <SMILES DATA>
CC(C)N1CCC(C)(C)c2ccc(N(CC3CC3)c3ccc(C(=O)O)cc3)cc21

>  <CENSORING QUALIFIER>
=

>  <pEC50>
10.00

$$$$
>  <SMILES DATA>
CCN(c1ccc(C(=O)O)cc1)c1cc2c(cc1C)C(C)(C)CCN2C(C)C

>  <CENSORING QUALIFIER>
=

>  <pEC50>
9.70

$$$$
>  <SMILES DATA>
CCN(c1ccc(C(=O)O)cc1)c1ccc2c(c1)C(C)(C)CCN2C(C)C

>  <CENSORING QUALIFIER>
=

>  <pEC50>
7.11

$$$$
>  <SMILES DATA>
Cc1cc2c(cc1N(CC1CC1)c1ccc(C(=O)O)cc1)C(C)(C)CCN2C(C)C

>  <CENSORING QUALIFIER>
<

>  <pEC50>
6.00

$$$$
>  <SMILES DATA>
CCN(c1ccc(C(=O)O)cc1)c1ccc2c(c1)N(C(C)C)CCC2(C)C

>  <CENSORING QUALIFIER>
=

>  <pEC50>
9.22

$$$$
>  <SMILES DATA>
CCN(c1ccc(C(=O)O)cc1)c1ccc2c(c1)C(C)(C)CC(=O)N2C(C)C

>  <CENSORING QUALIFIER>
=

>  <pEC50>
6.00

$$$$
>  <SMILES DATA>
CCCN(c1ccc(C(=O)O)cc1)c1cc2c(cc1C)C(C)(C)CCN2C(C)C

>  <CENSORING QUALIFIER>
=

>  <pEC50>
9.70

$$$$

====

- EXPERIMENTAL SYSTEM: UniProt:P48443
- Sequence (P48443 1-463): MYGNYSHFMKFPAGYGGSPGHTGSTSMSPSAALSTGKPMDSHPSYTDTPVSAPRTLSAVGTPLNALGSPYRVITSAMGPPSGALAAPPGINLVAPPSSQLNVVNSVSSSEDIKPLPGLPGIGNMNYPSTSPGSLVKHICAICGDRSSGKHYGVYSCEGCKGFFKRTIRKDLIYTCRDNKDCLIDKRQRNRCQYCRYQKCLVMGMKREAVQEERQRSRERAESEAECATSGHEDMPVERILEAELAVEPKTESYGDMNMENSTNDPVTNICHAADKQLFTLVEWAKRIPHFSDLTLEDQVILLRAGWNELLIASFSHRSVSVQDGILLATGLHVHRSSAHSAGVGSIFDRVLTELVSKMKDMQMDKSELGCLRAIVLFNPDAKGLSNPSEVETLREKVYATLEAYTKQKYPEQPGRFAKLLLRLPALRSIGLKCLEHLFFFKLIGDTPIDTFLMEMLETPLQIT
As shown below, each of these compounds has a reported Ki value.
QUANTITY KIND: Ki (nM)

>  <SMILES DATA>
CC(C)CCN(c1ccc(C(=O)O)cc1)c1ccc2c(c1)C(C)(C)CCN2C(C)C

>  <EXPERIMENTAL SYSTEM>
UniProt:P48443

>  <CENSORING QUALIFIER>
>

>  <ENDPOINT VALUE>
1000

$$$$
>  <SMILES DATA>
CCN(c1ccc(C(=O)O)cc1)c1cc2c(cc1C)N(C(C)C)CCC2(C)C

>  <EXPERIMENTAL SYSTEM>
UniProt:P48443

>  <CENSORING QUALIFIER>
>

>  <ENDPOINT VALUE>
1000

$$$$
>  <SMILES DATA>
CC(C)CN(c1ccc(C(=O)O)cc1)c1ccc2c(c1)N(C(C)C)CCC2(C)C

>  <EXPERIMENTAL SYSTEM>
UniProt:P48443

>  <CENSORING QUALIFIER>
=

>  <ENDPOINT VALUE>
60

$$$$
>  <SMILES DATA>
Cc1cc2c(cc1N(CC1CC1)c1ccc(C(=O)O)cc1)C(C)(C)CCN2C(C)C

>  <EXPERIMENTAL SYSTEM>
UniProt:P48443

>  <CENSORING QUALIFIER>
=

>  <ENDPOINT VALUE>
1300

$$$$
>  <SMILES DATA>
CCCN(c1ccc(C(=O)O)cc1)c1cc2c(cc1C)C(C)(C)CCN2C(C)C

>  <EXPERIMENTAL SYSTEM>
UniProt:P48443

>  <CENSORING QUALIFIER>
=

>  <ENDPOINT VALUE>
95

$$$$
>  <SMILES DATA>
CCN(c1ccc(C(=O)O)cc1)c1ccc2c(c1)C(C)(C)CCN2C(C)C

>  <EXPERIMENTAL SYSTEM>
UniProt:P48443

>  <CENSORING QUALIFIER>
=

>  <ENDPOINT VALUE>
1300

$$$$

====

- EXPERIMENTAL SYSTEM: RXRβ (Mus musculus, UniProt P28704)
- Sequence (P28704 whole entry): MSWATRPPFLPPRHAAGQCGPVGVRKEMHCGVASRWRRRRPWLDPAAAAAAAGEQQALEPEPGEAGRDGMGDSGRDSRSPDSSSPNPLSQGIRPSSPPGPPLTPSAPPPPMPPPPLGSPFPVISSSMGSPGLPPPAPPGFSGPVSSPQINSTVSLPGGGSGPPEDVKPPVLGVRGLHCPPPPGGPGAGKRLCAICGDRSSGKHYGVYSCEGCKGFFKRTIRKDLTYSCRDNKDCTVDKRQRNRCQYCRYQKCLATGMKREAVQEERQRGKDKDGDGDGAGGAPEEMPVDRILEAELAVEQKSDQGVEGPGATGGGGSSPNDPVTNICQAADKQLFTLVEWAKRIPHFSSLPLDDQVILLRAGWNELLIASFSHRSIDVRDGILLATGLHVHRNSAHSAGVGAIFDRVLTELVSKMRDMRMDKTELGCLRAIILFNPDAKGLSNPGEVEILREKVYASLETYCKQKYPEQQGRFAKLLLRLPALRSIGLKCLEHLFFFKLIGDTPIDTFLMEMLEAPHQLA
- ASSAY EXPLANATION: holoreceptor transactivation assay, RXRβ
- CONDITION DESCRIPTION: holoreceptor assay, read-out: RXR Trans EC50 β
As shown below, each of these molecules has a reported EC50 value.

>  <MOLECULE>
Cc1cc2c(cc1N(CC1CC1)c1ccc(C(=O)O)cc1)C(C)(C)CCN2C(C)C [Compound 26]

>  <CENSORING QUALIFIER>
>

>  <EC50 (nM)>
1000

$$$$
>  <MOLECULE>
CC(C)CN(c1ccc(C(=O)O)cc1)c1ccc2c(c1)N(C(C)C)CCC2(C)C [Compound 39]

>  <CENSORING QUALIFIER>
=

>  <EC50 (nM)>
10

$$$$
>  <MOLECULE>
CCN(c1ccc(C(=O)O)cc1)c1ccc2c(c1)C(C)(C)CCN2C(C)C [Compound 12]

>  <CENSORING QUALIFIER>
=

>  <EC50 (nM)>
1000

$$$$
>  <MOLECULE>
CCCN(c1ccc(C(=O)O)cc1)c1cc2c(cc1C)C(C)(C)CCN2C(C)C [Compound 53]

>  <CENSORING QUALIFIER>
=

>  <EC50 (nM)>
2

$$$$
>  <MOLECULE>
CCN(c1ccc(C(=O)O)cc1)c1ccc2c(c1)N(C(C)C)CCC2(C)C [Compound 38]

>  <CENSORING QUALIFIER>
=

>  <EC50 (nM)>
7

$$$$
>  <MOLECULE>
Cc1cc2c(cc1N(C)c1ccc(C(=O)O)cc1)N(C(C)C)CCC2(C)C [Compound 51]

>  <CENSORING QUALIFIER>
=

>  <EC50 (nM)>
374

$$$$
>  <MOLECULE>
CCN(c1ccc(C(=O)O)cc1)c1cc2c(cc1C)N(C(C)C)CCC2(C)C [Compound 24]

>  <CENSORING QUALIFIER>
=

>  <EC50 (nM)>
1000

$$$$
>  <MOLECULE>
Cc1cc2c(cc1Nc1ccc(C(=O)O)cc1)N(C(C)C)CCC2(C)C [Compound 50]

>  <CENSORING QUALIFIER>
=

>  <EC50 (nM)>
27

$$$$

====

As shown below, each of these compounds has a reported EC50 value.
- EXPERIMENTAL SYSTEM: RXRβ (Mus musculus, UniProt P28704)
- ASSAY EXPLANATION: holoreceptor transactivation assay, RXRβ
- CONDITION DESCRIPTION: holoreceptor assay, read-out: RXR Trans EC50 β

>  <COMPOUND>
CCN(c1ccc(C(=O)O)cc1)c1ccc2c(c1)C(C)(C)CC(=O)N2C(C)C [Compound 6]

>  <EC50>
> 1000 nM

$$$$
>  <COMPOUND>
CC(C)N1CCC(C)(C)c2ccc(N(CC3CC3)c3ccc(C(=O)O)cc3)cc21 [Compound 40]

>  <EC50>
3 nM

$$$$
>  <COMPOUND>
Cc1cc2c(cc1N(C)c1ccc(C(=O)O)cc1)C(C)(C)CCN2C(C)C [Compound 22]

>  <EC50>
> 1000 nM

$$$$
>  <COMPOUND>
CCN(c1ccc(C(=O)O)cc1)c1cc2c(cc1C)C(C)(C)CCN2C(C)C [Compound 52]

>  <EC50>
2 nM

$$$$
